Origin of measurements: patent US10472356B2

target: human Nav1.7 (Homo sapiens, UniProt Q15858); construct: expressed in transfected cells; host or cells: HEK293; experiment: Nav 1.7 IWQ In Vitro Assay (IonWorks Quattro); assay type: cell-based; settings: HEK293 cells stably transfected with human Nav 1.7; IonWorks Quattro population patch-clamp; 26th pulse to −20 mV, 5 Hz; cells unclamped 5 to 8 minutes with compound; read-out: hNav1.7 IWQ IC50
Sequence (Q15858 whole entry): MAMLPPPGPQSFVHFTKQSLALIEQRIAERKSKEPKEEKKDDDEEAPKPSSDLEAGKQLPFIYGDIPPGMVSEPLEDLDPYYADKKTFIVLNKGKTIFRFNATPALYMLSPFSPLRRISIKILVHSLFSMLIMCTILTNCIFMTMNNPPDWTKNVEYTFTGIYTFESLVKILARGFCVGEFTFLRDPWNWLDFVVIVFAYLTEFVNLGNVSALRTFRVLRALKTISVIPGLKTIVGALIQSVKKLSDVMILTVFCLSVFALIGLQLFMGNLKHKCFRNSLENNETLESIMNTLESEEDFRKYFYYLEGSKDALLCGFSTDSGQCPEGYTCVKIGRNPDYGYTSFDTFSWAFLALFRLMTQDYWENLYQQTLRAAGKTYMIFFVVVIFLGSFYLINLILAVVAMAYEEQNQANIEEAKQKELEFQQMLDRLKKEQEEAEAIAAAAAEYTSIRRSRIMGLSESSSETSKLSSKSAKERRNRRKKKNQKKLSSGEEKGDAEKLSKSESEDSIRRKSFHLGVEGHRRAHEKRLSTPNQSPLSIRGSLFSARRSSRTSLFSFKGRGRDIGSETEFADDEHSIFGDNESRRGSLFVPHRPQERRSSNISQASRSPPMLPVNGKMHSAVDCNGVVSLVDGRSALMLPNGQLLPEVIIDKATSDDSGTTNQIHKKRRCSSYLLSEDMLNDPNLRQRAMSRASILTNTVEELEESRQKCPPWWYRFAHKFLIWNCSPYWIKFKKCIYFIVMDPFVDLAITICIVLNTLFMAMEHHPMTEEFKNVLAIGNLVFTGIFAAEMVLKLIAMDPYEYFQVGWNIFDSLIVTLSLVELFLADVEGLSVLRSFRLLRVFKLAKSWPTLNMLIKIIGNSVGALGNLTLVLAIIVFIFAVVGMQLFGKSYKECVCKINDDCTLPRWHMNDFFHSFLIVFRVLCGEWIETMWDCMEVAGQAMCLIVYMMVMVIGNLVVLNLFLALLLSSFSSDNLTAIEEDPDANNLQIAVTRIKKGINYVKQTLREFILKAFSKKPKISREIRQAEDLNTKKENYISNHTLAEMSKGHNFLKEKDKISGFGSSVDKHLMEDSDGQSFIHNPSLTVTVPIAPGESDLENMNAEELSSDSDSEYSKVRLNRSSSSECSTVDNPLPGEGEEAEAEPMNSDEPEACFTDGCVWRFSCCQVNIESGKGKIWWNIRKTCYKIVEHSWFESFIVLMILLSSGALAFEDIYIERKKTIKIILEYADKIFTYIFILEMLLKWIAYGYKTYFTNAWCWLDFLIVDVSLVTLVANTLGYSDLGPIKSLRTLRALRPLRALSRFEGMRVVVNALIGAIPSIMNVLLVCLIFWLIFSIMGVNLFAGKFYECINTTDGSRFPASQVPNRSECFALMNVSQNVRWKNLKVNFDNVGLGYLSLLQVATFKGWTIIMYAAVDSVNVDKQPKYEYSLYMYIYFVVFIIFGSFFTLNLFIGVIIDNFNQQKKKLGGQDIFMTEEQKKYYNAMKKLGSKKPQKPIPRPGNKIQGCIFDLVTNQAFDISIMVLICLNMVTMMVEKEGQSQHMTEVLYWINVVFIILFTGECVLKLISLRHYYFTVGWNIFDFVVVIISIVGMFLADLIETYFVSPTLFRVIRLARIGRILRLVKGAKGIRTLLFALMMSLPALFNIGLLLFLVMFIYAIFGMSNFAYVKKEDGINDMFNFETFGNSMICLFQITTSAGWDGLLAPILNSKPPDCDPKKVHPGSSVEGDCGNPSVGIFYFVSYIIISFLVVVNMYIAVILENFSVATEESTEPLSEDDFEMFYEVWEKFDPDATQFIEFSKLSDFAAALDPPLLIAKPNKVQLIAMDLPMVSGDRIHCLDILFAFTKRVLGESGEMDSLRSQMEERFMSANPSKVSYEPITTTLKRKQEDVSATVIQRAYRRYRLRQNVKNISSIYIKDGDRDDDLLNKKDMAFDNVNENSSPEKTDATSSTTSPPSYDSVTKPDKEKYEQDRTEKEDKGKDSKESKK
pIC50: −log10 of the molar value.
property measured: pIC50

compound	measurement target	pIC50
COc1cc(-c2cc(F)cc(Cl)c2)c(F)cc1-n1c2c(ccc1=O)CN(S(=O)(=O)Nc1ccc(F)cn1)CC2 (single isomer, unassigned) [Example 12-P]	human Nav1.7 (Homo sapiens, UniProt Q15858)	7.25
COc1cc(-c2ccc(F)c(F)c2)c(F)cc1-n1c2c(ccc1=O)CN(S(=O)(=O)Nc1cccnn1)CC2 (single isomer, unassigned) [Example 32-P]	human Nav1.7 (Homo sapiens, UniProt Q15858)	7.74
COc1cc(-c2cccc(OC(F)F)c2)c(F)cc1-n1c2c(ccc1=O)CN(S(=O)(=O)Nc1ccon1)CC2 (single isomer, unassigned) [Example 19-P]	human Nav1.7 (Homo sapiens, UniProt Q15858)	8.30

I: COc1cc(-c2ccc(C(F)F)c(F)c2)c(F)cc1-n1c2c(ccc1=O)CN(S(=O)(=O)Nc1cccnn1)CC2 [Example 87]
II: COc1cc(-c2cc(Cl)ccc2C)c(F)cc1-n1c2c(ccc1=O)CN(S(=O)(=O)Nc1ccon1)CC2 (racemic) [9-(Rac)]
III: COc1cc(-c2cc(F)cc(F)c2)c(F)cc1-n1c2c(ccc1=O)CN(S(=O)(=O)Nc1cccc(F)n1)CC2 (racemic) [Example 14-(Rac)]
IV: COc1cc(-c2cc(F)cc(Cl)c2)c(F)cc1-n1c2c(ccc1=O)CN(S(=O)(=O)Nc1ccc(F)cn1)CC2 (racemic) [Example 12-(Rac)]
Exercise: Your job: order these 4 records by pIC50, ascending. Please write the labels in the order that was asked for.
Key: IV, III, I, II
(IV: 7.09, III: 7.35, I: 7.91, II: 8.34)

P: COc1cc(-c2cc(F)cc(Cl)c2)c(F)cc1-n1c2c(ccc1=O)CN(S(=O)(=O)Nc1cccnn1)CC2 (racemic) [Example 38-(Rac)]
Q: COc1cc(-c2cc(F)c(F)c(OC)c2)c(F)cc1-n1c2c(ccc1=O)CN(S(=O)(=O)Nc1cccnn1)CC2 [Example 79]
R: COc1cc(CCC(F)(F)F)c(Cl)cc1-n1c2c(ccc1=O)CN(S(=O)(=O)Nc1cccnn1)CC2 (single isomer, unassigned) [Example 96-P]
Exercise: Your job: order these 3 records by pIC50, ascending. Please write the labels in the order that was asked for.
Key: P, R, Q
(P: 7.78, R: 8.05, Q: 8.41)

---

molecular target: human Nav1.7 (Homo sapiens, UniProt Q15858); construct: expressed in transfected cells; host or cells: HEK293; test: Nav 1.7 IWB In Vitro Assay (IonWorks Barracuda); type: cell-based; conditions: HEK293 cells stably transfected with human Nav 1.7; IonWorks Barracuda population patch-clamp; cells clamped to −20 mV for 4 minutes with compound; 26th pulse; read-out: hNav1.7 IWB IC50
pIC50: −log10 of the molar value.
property measured: pIC50

compound	pIC50
COc1cc(-c2cc(F)cc(Cl)c2)ccc1-n1c2c(ccc1=O)CN(S(=O)(=O)Nc1ccon1)CC2 (single isomer, unassigned) [Example 7-P]	7.84
COc1cc(Br)c(F)cc1-n1c2c(ccc1=O)CN(S(=O)(=O)Nc1ccncn1)CC2 (single isomer, unassigned) [Preparation 8f-P]	6.71

A: COc1cc(-c2cc(C)cc(Cl)c2)c(F)cc1-n1c2c(ccc1=O)CN(S(=O)(=O)Nc1cccnn1)CC2
B: COc1cc(-c2cccc(C(F)(F)F)c2)c(Cl)cc1-n1c2c(ccc1=O)CN(S(=O)(=O)Nc1cccnn1)CC2 (single isomer, unassigned) [Example 91-P]
Exercise: pIC50 comparison. Which is larger, A or B ? Return value: the label identifying the chosen record.
Key: B
(B: 8.46, A: 7.77)
